# experiment-summary: PK study in SD rats after a single intravenous administration
# Type: in vivo
# measurement-parameters: Sprague-Dawley (SD), rat, plasma, 1 mg/kg, 2 h
quantity-kind: concentration at 2 h (ng/mL)

>  <compound>
O=C(O)COc1c(C(=O)O)sc(-c2cccc(NC3CCN(S(=O)(=O)Cc4ccc5oc(N6CCC(c7ccc8c9c(cccc79)C(=O)N8C7CCC(=O)NC7=O)CC6)nc5c4)C4(CC4)C3)c2)c1Cl (stereo not shown) [Compound 57]

>  <unit-abbreviation>
ng/mL

>  <assay-result>
5430

$$$$
>  <compound>
O=C(O)COc1c(C(=O)O)sc(-c2cccc(NC3CCN(S(=O)(=O)Cc4ccc5oc(N6CCC(c7ccc8c9c(cccc79)C(=O)N8C7CCC(=O)NC7=O)CC6)nc5c4)CC3)c2)c1Cl (stereo not shown) [Compound 23]

>  <unit-abbreviation>
ng/mL

>  <assay-result>
2420

$$$$
>  <compound>
CC1(C)CC(Nc2cccc(-c3sc(C(=O)O)c(OCC(=O)O)c3Cl)c2)CCN1S(=O)(=O)Cc1ccc2oc(N3CCC(c4ccc5c6c(cccc46)C(=O)N5C4CCC(=O)NC4=O)CC3)nc2c1 (stereo not shown) [Compound 21]

>  <unit-abbreviation>
ng/mL

>  <assay-result>
2890

$$$$
>  <compound>
[2H]C([2H])(c1ccc2oc(N3CCC(c4ccc5c6c(cccc46)C(=O)N5C4CCC(=O)NC4=O)CC3)nc2c1)S(=O)(=O)N1CCC(Nc2cccc(-c3sc(C(=O)O)c(OCC(=O)O)c3Cl)c2)CC1(C)C (stereo not shown) [Compound 151]

>  <unit-abbreviation>
ng/mL

>  <assay-result>
3810

$$$$

---

# experiment-summary: PK study in SD rats after a single intravenous administration
# Type: in vivo
# measurement-parameters: Sprague-Dawley (SD), rat, plasma, 1 mg/kg, 8 h
quantity-kind: concentration at 8 h (ng/mL)

>  <molecule>
[2H]C([2H])(c1ccc2oc(N3CCC(c4ccc5c6c(cccc46)C(=O)N5C4CCC(=O)NC4=O)CC3)nc2c1)S(=O)(=O)N1CCC(Nc2cccc(-c3sc(C(=O)O)c(OCC(=O)O)c3Cl)c2)CC1(C)C (stereo not shown) [Compound 151]

>  <unit-abbreviation>
ng/mL

>  <assay-result>
345

$$$$
>  <molecule>
O=C(O)COc1c(C(=O)O)sc(-c2cccc(NC3CCN(S(=O)(=O)Cc4ccc5oc(N6CCC(c7ccc8c9c(cccc79)C(=O)N8C7CCC(=O)NC7=O)CC6)nc5c4)C4(CC4)C3)c2)c1Cl (stereo not shown) [Compound 57]

>  <unit-abbreviation>
ng/mL

>  <assay-result>
1090

$$$$
>  <molecule>
CC1(C)CC(Nc2cccc(-c3sc(C(=O)O)c(OCC(=O)O)c3Cl)c2)CCN1S(=O)(=O)Cc1ccc2oc(N3CCC(c4ccc5c6c(cccc46)C(=O)N5C4CCC(=O)NC4=O)CC3)nc2c1 (stereo not shown) [Compound 21]

>  <unit-abbreviation>
ng/mL

>  <assay-result>
372

$$$$
>  <molecule>
O=C(O)COc1c(C(=O)O)sc(-c2cccc(NC3CCN(S(=O)(=O)Cc4ccc5oc(N6CCC(c7ccc8c9c(cccc79)C(=O)N8C7CCC(=O)NC7=O)CC6)nc5c4)CC3)c2)c1Cl (stereo not shown) [Compound 23]

>  <unit-abbreviation>
ng/mL

>  <assay-result>
110

$$$$

---

Overview of recorded AUC(0-t) for various compounds
# experiment-summary: PK study in SD rats after a single intravenous administration
# Assay type: in vivo
# measurement-parameters: Sprague-Dawley (SD), rat, plasma, 1 mg/kg, read-out: AUC0-24 h
quantity-kind: AUC(0-t) (ng·h/mL)

>  <compound>
CC1(C)CC(Nc2cccc(-c3sc(C(=O)O)c(OCC(=O)O)c3Cl)c2)CCN1S(=O)(=O)Cc1ccc2oc(N3CCC(c4ccc5c6c(cccc46)C(=O)N5C4CCC(=O)NC4=O)CC3)nc2c1 (stereo not shown)

>  <quantity-kind>
AUC(0-t)

>  <assay-result>
27200

$$$$
>  <compound>
[2H]C([2H])(c1ccc2oc(N3CCC(c4ccc5c6c(cccc46)C(=O)N5C4CCC(=O)NC4=O)CC3)nc2c1)S(=O)(=O)N1CCC(Nc2cccc(-c3sc(C(=O)O)c(OCC(=O)O)c3Cl)c2)CC1(C)C (stereo not shown)

>  <quantity-kind>
AUC(0-t)

>  <assay-result>
29700

$$$$
>  <compound>
O=C(O)COc1c(C(=O)O)sc(-c2cccc(NC3CCN(S(=O)(=O)Cc4ccc5oc(N6CCC(c7ccc8c9c(cccc79)C(=O)N8C7CCC(=O)NC7=O)CC6)nc5c4)C4(CC4)C3)c2)c1Cl (stereo not shown)

>  <quantity-kind>
AUC(0-t)

>  <assay-result>
48700

$$$$
>  <compound>
O=C(O)COc1c(C(=O)O)sc(-c2cccc(NC3CCN(S(=O)(=O)Cc4ccc5oc(N6CCC(c7ccc8c9c(cccc79)C(=O)N8C7CCC(=O)NC7=O)CC6)nc5c4)CC3)c2)c1Cl (stereo not shown)

>  <quantity-kind>
AUC(0-t)

>  <assay-result>
24700

$$$$
